The measurements presented in this section are drawn from the supplement of paper PMC10037445.

Listing: NF-kB SEAP reporter activity of selected compounds
system: RAW-Dual; experiment: NF-kB SEAP reporter activity, fold change vs agonist alone; cytotoxicity flag (confluency mask): not cytotoxic; higher = enhanced NF-kB activity; conditions: agonist: ODN 1826 (TLR9) 0.5 ug/mL
The full ranking holds about 2,900 compounds; the median of “NF-kB SEAP reporter activity, fold change vs agonist alone” is about 0.99, and the highest 2% start at about 2.6. What follows is part of a selection rich in the highest values, with near analogues and random picks from the rest.
Answer with the value's number alone.

The examples below pair each entry with its known result.
[[record]]
compound = "CCn1cc(C(=O)O)c(=O)c2c(N)c(F)c(NC3CCCCC3)cc21 (library stock concentration (final ~1000-fold dilution): 10 mM)"
measured = 2.9

[[record]]
compound = "O=C1C(CCC(O)c2ccc(F)cc2)C(c2ccc(O)cc2)N1c1ccc(F)cc1 (stereo not given) (library stock concentration (final ~1000-fold dilution): 10 mM)"
measured = 0.665

[[record]]
compound = "O=C(CCNC(=O)c1ccc(OC(F)(F)F)cc1)NC1CCCc2ccccc21 (stereo not given) (library stock concentration (final ~1000-fold dilution): 10 mM)"
measured = 1.33

[[record]]
compound = "CCn1cc(C(=O)O)c(=O)c2cc(F)c(N3CCN(C)CC3)cc21.CS(=O)(=O)O (library stock concentration (final ~1000-fold dilution): 10 mM)"
measured = 1.03


input: Annotate the compound COC1CC2CCC(C)C(O)(O2)C(=O)C(=O)N2CCCCC2C(=O)OC(C(C)CC2CCC(OC(=O)C(C)(CO)CO)C(OC)C2)CC(=O)C(C)C=C(C)C(O)C(OC)C(=O)C(C)CC(C)C=CC=CC=C1C (stereo not given) (library stock concentration (final ~1000-fold dilution): 10 mM) with its measured NF-kB SEAP reporter activity.
output: 3.11
